Test system: CCRF-CEM leukemia
test method notes: NCI tumour cell line growth inhibition, 48 h
value kind: TGI

C[Si](C)(OCCS(=O)(=O)O)C1S(=O)(=O)OCCOS1(=O)=O | > 100 µM
CC(C)C1OC(=O)/C=C/C=C/C=C/C=C/C=C/CC(O)CC(O)CC(O)CC(O)CC(O)CC(O)CC(O)CC(O)/C=C/C1C (centres undefined) | > 100 µM
C(=C\C(SCc1ccccc1)SCc1ccccc1)/c1ccccc1 | > 10 µM

Q. Request - read-out TGI | tested on CCRF-CEM leukemia | compound COC(=O)c1c(C)cccc1/C=C1\Cc2cc(C)cc(C)c2C1=O
A. > 100 µM

Q. Request - read-out TGI | tested on CCRF-CEM leukemia | compound N#C/C(=C\c1cccc(O)c1)C(N)=O
A. > 100 µM

Q. Request - read-out TGI | tested on CCRF-CEM leukemia | compound Cc1ccc(Nc2cc(=O)[nH]c(=S)[nH]2)cc1
A. > 100 µM

Q. Request - read-out TGI | tested on CCRF-CEM leukemia | compound O=C1CCCCc2cccc(O)c21
A. > 100 µM

Q. Request - read-out TGI | tested on CCRF-CEM leukemia | compound C#CC[C@@H]1C[C@]2(C)[C@H]3CC=C4[C@H]5CC(C)(C)CC[C@]5(C(=O)NCCCCN)CC[C@@]4(C)[C@]3(C)CC[C@H]2C(C)(C)[C@H]1OC(C)=O
A. 4.55 µM

Q. Request - read-out TGI | tested on CCRF-CEM leukemia | compound ClCc1c(Cl)c(Cl)c(Cl)c(CCl)c1Cl
A. 3.28 µM

###

Tested on: MALME-3M melanoma
test method notes: NCI tumour cell line growth inhibition, 48 h
Quick rule: TGI of at least 20 µM means 1 (yes), below that means 0 (no).

Some solved entries appear below for comparison.
CC(=O)c1cc([N+](=O)[O-])ccc1OCC(=O)O | 1 (yes)
CN(C)c1ccc2cc(-c3ccccc3F)c(N)nc2c1 | 0 (no)
Cc1cn(Cc2ccccc2CCl)c(=O)[nH]c1=O | 1 (yes)
CC1(C)Oc2ccc3c(=O)cc(-c4ccc(F)cc4)oc3c2C1C(=O)O (configuration not stated) | 1 (yes)
Cc1cccc(NC(=S)Nc2ccccc2Cl)n1 | 1 (yes)

Attention now shifts to the item below.
Q. Please tell me: is the compound Cc1nnc2n1-c1ccccc1C(=S)N1CSCC21 (configuration not stated) at or over 20 µM in terms of TGI?
A. 1 (yes)

###

Test system: HS 578T breast
test method notes: NCI tumour cell line growth inhibition, 48 h
Let's look at some compounds and their measured TGI.
The response must be a number in µM with no trailing unit.

Observe how each entry below is paired with its result.
Cc1cc2c(c(C=NCc3ccccc3)c1)OC1(C=C2)Oc2ccccc2C(=O)N1C (stereo not given) | 63.6
CC(C)=CCC/C(C)=C/CC/C(C)=C/CC/C(C)=C/CC/C(C)=C\CC/C(C)=C/CC/C(C)=C/CC/C(C)=C/Cc1cc(O)ccc1O | 8.93

Q. Please give the measured TGI for this compound: CC(CNC(Cc1ccccc1)c1ccccc1)NC(Cc1ccccc1)c1ccccc1 (stereo not given)
A. 8.27

Q. Please give the measured TGI for this compound: COc1cc(Cn2c3c(c4c(C(=O)NCCN(C)C)c(O)ccc42)C(=O)c2ccccc2C3=O)cc(OC)c1
A. 4.55
